# kon per entry
target: T1, TPP-2305 (hTNFRSF12Aaa28-80) (Human, UniProt Q9NP84 28-80); assay: SPR (Biacore T100), IgG captured, TPP-2305 injected, 1:1 model
T1 construct: monomeric extracellular domain, bought; also called purified recombinant human TWEAKR protein; soluble monomeric TWEAKR
Provide the reading as a plain figure in M⁻¹ s⁻¹.

Example cases with answers are listed next.
- binder: "136.1(TPP-2194) (antibody, mouse IgG2a, kappa, V domains shown, Murine IgG2a; variable domains from WO2009/020933 with constant region added) VH: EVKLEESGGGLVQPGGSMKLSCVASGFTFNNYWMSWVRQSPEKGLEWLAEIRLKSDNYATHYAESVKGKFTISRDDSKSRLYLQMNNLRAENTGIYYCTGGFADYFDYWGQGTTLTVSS VL: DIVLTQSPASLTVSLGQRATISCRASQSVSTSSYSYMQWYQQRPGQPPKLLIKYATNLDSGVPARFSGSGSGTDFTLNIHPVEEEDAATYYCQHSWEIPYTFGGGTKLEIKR"
  kon / M⁻¹ s⁻¹: "3.84e+07"
- binder: "18.3.3(TPP-2193) (antibody, mouse IgG2a, kappa, V domains shown, Murine IgG2a; variable domains from WO2009/020933 with constant region added) VH: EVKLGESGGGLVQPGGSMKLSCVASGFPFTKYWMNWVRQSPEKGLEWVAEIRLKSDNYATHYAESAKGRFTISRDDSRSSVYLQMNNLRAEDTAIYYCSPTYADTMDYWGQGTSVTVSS VL: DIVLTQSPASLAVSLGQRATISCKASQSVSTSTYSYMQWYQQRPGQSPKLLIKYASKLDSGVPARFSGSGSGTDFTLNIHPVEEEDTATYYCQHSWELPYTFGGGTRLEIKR"
  kon / M⁻¹ s⁻¹: "1.64e+07"

Proceeding to the next binder to report its kon.
Recorded result, TPP-2093 (antibody, human IgG1, kappa, V domains shown, Human IgG1) VH: EVQLLESGGGLVQPGGSLRLSCAASGFTFSPYPMMWVRQAPGKGLEWVSYISPSGGSTHYADSVKGRFTISRDNSKNTLYLQMNSLRAEDTAVYYCARGGDTYFDYFDYWGQGTLVTVSS VL: DIQMTQSPSSLSASVGDRVTITCRASQSISSYLNWYQQKPGKAPKLLIYQASSLQSGVPSRFSGSGSGTDFTLTISSLQPEDFATYYCQQSYTSPFITFGQGTKVEIKR , kon: 4.1e+06

Data origin: patent US20160237160A1
